# ASSAY COMMENT: Solubility in sodium phosphate buffer
# Assay type: physicochemical
# CONDITION: pH 7.4, aqueous buffer
MEASURE: solubility
Reply with the number and its unit after it.

Inquiry: Which solubility is listed for CC1(C)[C@H]2CC[C@]1(C)C(NC(=O)Nc1ccccc1F)C2 (mixture of isomers) [(S)-2b] ?
Reply text: 225 µM

----------
# TESTED ON: UniProt P34913
# Sequence (P34913 whole entry): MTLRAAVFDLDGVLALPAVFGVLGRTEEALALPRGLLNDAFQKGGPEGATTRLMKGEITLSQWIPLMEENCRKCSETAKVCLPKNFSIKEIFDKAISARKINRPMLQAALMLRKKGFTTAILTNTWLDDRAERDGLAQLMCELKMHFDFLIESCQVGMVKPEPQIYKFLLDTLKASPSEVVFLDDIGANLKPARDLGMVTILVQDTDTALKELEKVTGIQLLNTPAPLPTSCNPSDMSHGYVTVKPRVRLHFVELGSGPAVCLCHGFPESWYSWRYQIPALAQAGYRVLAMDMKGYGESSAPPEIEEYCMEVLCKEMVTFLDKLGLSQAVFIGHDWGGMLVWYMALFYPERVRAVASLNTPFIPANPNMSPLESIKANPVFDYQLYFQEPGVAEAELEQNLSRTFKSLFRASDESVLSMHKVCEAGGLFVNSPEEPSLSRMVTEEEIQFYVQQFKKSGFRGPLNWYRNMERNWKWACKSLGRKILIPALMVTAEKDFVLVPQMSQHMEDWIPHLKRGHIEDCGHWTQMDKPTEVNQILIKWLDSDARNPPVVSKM
MEASURE: IC50 (µM)
Answer format: numeric, µM implied, no suffix.

Inquiry: Write down the reported IC50 of O=C(NCCCCCCCCNC(=O)NCc1ccco1)NCc1ccco1 , test system: UniProt P34913.
Reply text: 0.214
